- Test system: HT29 colon
- protocol notes: NCI-60 one-dose screen, 48 h (100 = growth as untreated, 0 = no growth, -100 = all killed)
- experimental setup: 10 µM
This is part of a sample that, as a whole, favours compounds with a hit. Of some 83,000 tested, about 20% had one in any assay.
readout: growth (%)
Numbers only, in %.

For record Nc1cc(-c2ccc(Cl)cc2)nn1-c1nc2ccccc2nc1Cc1ccccc1 the listed growth is 69.7

Please supply growth for each of the following items, keeping them in order.
1. O=C1CSC(=S)N1/N=C/c1ccc(Cl)s1
2. CCN1CCN(CCC(=O)Nc2cccc(-n3cc(-c4ccncc4)c(-c4ccc(Cl)c(OC)c4)n3)c2)CC1
3. CS(=O)(=O)c1nccc(-c2c(-c3cccc(OCc4ccc(F)cc4)c3)nc3sccn23)n1
4. C=C(NC(=O)C(=C)NC(=O)c1csc(C2=NC3c4csc(n4)C4NC(=O)c5csc(n5)C(C(C)(O)C(C)O)NC(=O)C5CSC(=N5)C(=CC)NC(=O)C(C(C)O)NC(=O)c5csc(n5)C3(CC2)NC(=O)C(C)NC(=O)C(=C)NC(=O)C(C)NC(=O)C(C(C)CC)NC2C=Cc3c(C(C)O)cc(nc3C2O)C(=O)OC4C)n1)C(N)=O (stereo unspecified)
5. COc1ccc2nc3cc(Cl)ccc3c(N)c2c1
6. O=C(N/N=C/c1ccc(Cl)cc1)c1ccc(Cc2n[nH]c(=O)c3cccnc23)cc1
7. COc1ccc(C2CC(c3cc(OC)c(OC)c(OC)c3)=NN2)cc1 (stereo unspecified)

-- reply
110
-23.4
82.9
3.8
-67.3
99.3
29.9

----------
- Tested on: HCT-15 colon
- protocol notes: NCI-60 one-dose screen, 48 h (100 = growth as untreated, 0 = no growth, -100 = all killed)
- experimental setup: 10 µM
- Method: Growth inhibition of the HCT-15 human tumor cell line is measured as a screen for anti-cancer activity. Cells are grown in 96 well plates and exposed to the test compound for 48 hours. Compounds are tested at a single concentration, which is 10^-5 M for most compounds. The reported endpoint is percent growth (GI% or GIPRCNT), where numbers from 0 - 100% represent growth inhibition, and numbers from -100% - 0 represent cell death. For example, a value of 40 represents 60% growth inhibition. […]
Compounds without any hit were thinned out: in the full panel of roughly 83,000, 20% have a hit.
readout: growth (%)
One number for each entry, in %.

Solved entries (count: 4):
// compound CC(C)(C)OC(=O)CN1CCc2c(sc3ncnc(N/N=C/c4cccc5ccccc45)c23)C1 , assay HCT-15 colon, growth value: 16.7

// compound COc1cc2cc(Oc3ccc(NC(=O)Nc4ccc(C(F)(F)F)cc4)cc3)c(C)nc2cc1OC , assay HCT-15 colon, growth value: 75.4

// compound CC(C)C1=C(O)C2=C(C(=O)C1=O)[C@@]1(C)CCCC(C)(C)[C@@H]1CC2 , assay HCT-15 colon, growth value: 44.2

// compound COc1ccc(-c2cc(-c3ccccc3)nc(SCCCCCCC(=O)NO)n2)cc1 , assay HCT-15 colon, growth value: 44.3

Then this compound:
// compound C[C@@H](C[C@H](CCO)c1ccccc1)c1ccc2ccccc2c1 , assay HCT-15 colon, growth value: -75

----------
- Test system: OVCAR-4 ovarian
- protocol notes: NCI-60 one-dose screen, 48 h
- experimental setup: 10 µM
This is part of a sample that, as a whole, favours compounds with a hit. Of some 83,000 tested, about 20% had one in any assay. Activity calls are given as the source filed them. The calls were made as follows: active = growth percent below 10; inactive = the rest.
API: response.call in active, inactive

See these solved cases before continuing.
-- ask What was the test verdict on C[C@@H](O)[C@H]1C(=O)N2C(C(=O)O)=C(SC3CN[C@H](C(=O)N(C)C)C3)[C@H](C)[C@H]12 (some centres undefined) ?
-- reply inactive

-- ask What was the test verdict on Nc1nc(-c2ccc(Cl)cc2)cc(-c2cc3ccccc3oc2=O)n1 ?
-- reply inactive

-- ask What was the test verdict on COc1ccc(C(c2ccc(OCCN(C)C)cc2)c2cc3ccccc3c3ccccc23)cc1 (centres undefined) ?
-- reply inactive

-- ask What was the test verdict on COc1ccc(-c2cc(-c3ccccc3)nc(SCCCCCCC(=O)NO)n2)cc1 ?
-- reply inactive

-- ask What was the test verdict on Cc1n[nH]c(C)c1N=Nc1cccc2c1C(=O)c1ccccc1C2=O ?
-- reply inactive

More entries:
-- ask What was the test verdict on Fc1ccc(C(c2ccc(F)cc2)C(Cl)Cl)cc1 ?
-- reply inactive

-- ask What was the test verdict on C[C@]12CCC3c4ccc(O)cc4C[C@@H](CCCCCCCCCS(=O)CCCC(F)(F)C(F)(F)F)C3C1CC[C@@H]2O (some centres undefined) ?
-- reply inactive

-- ask What was the test verdict on O=C(Nc1ccc(OS(=O)(=O)c2ccccc2)cc1)C1CCCCC1 ?
-- reply inactive
